self-cleavage values by entry
B1: LINE1-full (parent)
chain: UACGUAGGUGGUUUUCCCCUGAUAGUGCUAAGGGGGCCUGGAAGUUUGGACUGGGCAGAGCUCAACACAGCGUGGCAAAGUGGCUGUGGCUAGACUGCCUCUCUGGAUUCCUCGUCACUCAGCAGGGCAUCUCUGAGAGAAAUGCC

variants of: B1; experiment: self-cleavage, relative activity (ratio to wild type); higher = more cleavage; in vitro, sequencing; the parent is a self-cleaving ribozyme
Please respond with just the number, no unit label.

monomer_sequence="UACGUAGGCGGUUUUCCCCUGAUAGUGCUAAGGGGGCCUGGAAGUUUGGACUGGGCAGACCUCAACACAGCGUGGCAAAGUGGCUGUGGCUAGACUGCCUCUCUGGAUUCCUCGUCACUCAGCAGGGCAUCUCUGAGAGAAAUGCC [U9C G60C]" observed_property=self-cleavage recorded_number=0.07
monomer_sequence="UACGUAGGUGGUUUUCCCCUGAUAGUGCUAAGGGGGCCUGGAAGUUUGGACUGGGCAGAGCUCGACACAGCGUGGCAAAGUGGCUGUGGCUAGACUGCCUCUCUGGACUCCUCGUCACUCAGCAGGGCAUCUCUGAGAGAAAUGCC [A64G U108C]" observed_property=self-cleavage recorded_number=0.31

Please look up its self-cleavage: UACGUAGGUGGUUUUCCCCUGAUAGUGCUAAGGGGGCCUGGAAGUUUGGACUGGGCAGGGCUUAACACAGCGUGGCAAAGUGGCUGUGGCUAGACUGCCUCUCUGGAUUCCUCGUCACUCAGCAGGGCAUCUCUGAGAGAAAUGCC [A59G C63U]
0.05

Please look up its self-cleavage: UACGUAGGUGGUUUUCCCCUGAUGGUGCUAAGGGGGCCUGGAAGUUUGGACUGGGCAGAGCUCAACACAGCGUGGCAAAGUGGCUGUGGCUAGACUGCCUCUCUGGAUUCCUCGUCACUCAGCAGGGCCUCUCUGAGAGAAAUGCC [A24G A129C]
0.71
